- assayed-system: HLA-B*51:01
- protocol: IEDB peptide-MHC binding, purified MHC/competitive/fluorescence; bounds were set here for any values at or beyond the usual limits of such assays
- study-conditions: source organism: Gorilla gorilla gorilla
measured-parameter: IC50

I have this sequence here, RYSHWTKL , and I need its recorded IC50. ≥ 20 µM

###

- assayed-system: HLA-B*07:02
- protocol: IEDB peptide-MHC binding, purified MHC/competitive/fluorescence; bounds were set here for any values at or beyond the usual limits of such assays
- study-conditions: source organism: Sudan ebolavirus
measured-parameter: pIC50
To interpret pIC50, take it as minus log10 of a concentration measured in moles per litre.

I have this sequence here, RLDRPHTPQ , and I need its recorded pIC50. 4.54
